# Test System: human neutrophil elastase (HNE) (Homo sapiens)
# Sequence (P08246 30-267): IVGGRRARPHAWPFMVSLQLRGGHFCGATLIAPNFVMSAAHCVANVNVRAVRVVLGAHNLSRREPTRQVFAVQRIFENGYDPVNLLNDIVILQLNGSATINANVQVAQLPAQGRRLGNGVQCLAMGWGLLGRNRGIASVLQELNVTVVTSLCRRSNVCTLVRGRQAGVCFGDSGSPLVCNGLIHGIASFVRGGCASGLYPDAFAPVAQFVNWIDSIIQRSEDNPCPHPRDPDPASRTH
# Test Name: In vitro inhibition of HNE using a fluorogenic peptide substrate (MeOSuc-Ala-Ala-Pro-Val-AMC), 384 MTP format
# Stated Conditions: 37° C.
In this section, each of the compounds is paired with its reported pIC50.
The scale used: pIC50 is minus the common logarithm of the concentration in molar units.

{"Compound": "CCOC(=O)C1=C(N)N(c2cccc(CN(CC)CC)c2)C(C)=C(C(C)=O)C1c1ccc(C#N)cc1 (centres unmarked)", "pIC50": 5.05}
{"Compound": "CC(=O)C1=C(C)N(c2cccc(C(F)(F)F)c2)C(N)=C(C#N)C1c1ccc(C#N)cc1 (centres unmarked)", "pIC50": 6.92}
{"Compound": "CC(=O)C1=C(C)N(c2cccc(C(F)(F)F)c2)C(=N)C(C(=O)N(C)C)C1c1ccc(C#N)cc1 (centres unmarked)", "pIC50": 7.70}

Value of measured pIC50 for the entry CCOC(=O)C1=C(N)N(c2cc(OC)cc(C(F)(F)F)c2)C(C)=C(C(C)=O)C1c1ccc(C#N)cc1 (centres unmarked) : 7.52

Value of measured pIC50 for the entry CCOC(=O)C1=C(N)N(c2cccc(C)c2)C(C)=C(C(C)=O)C1c1ccc(C#N)cc1 (centres unmarked) : 6.74

* * *

# Test System: human neutrophil elastase (HNE) (Homo sapiens, UniProt P08246)
# Test Name: In vitro inhibition of HNE using a fluorogenic peptide substrate (MeOSuc-Ala-Ala-Pro-Val-AMC), 384 MTP format
# Stated Conditions: 37° C.
In this section, each of the compounds is paired with its reported IC50.
Field: numeric (nM). Do not append units.

{"Compound": "CCOC(=O)C1=C(C)N(c2cccc(C(F)(F)F)c2)C(C)=C(C(C)=O)C1c1ccc(C#N)cc1 (racemic)", "Quantitative Result": 230}
{"Compound": "CCOC(=O)C1=CN(c2cccc(C(F)(F)F)c2)C(C)=C(C(C)=O)C1c1ccc(C#N)cc1 (racemic)", "Quantitative Result": 330}

API: the following record is the query input.
The compound CC(=O)C1=C(C)N(c2cccc(C(F)(F)F)c2)C(N)=C(C(N)=O)C1c1ccc(C#N)cc1 (stereo not drawn) , when measured on human neutrophil elastase (HNE) (Homo sapiens, UniProt P08246), yielded IC50 of 30

Recorded values, source patent US7199136B2.
